experiment: Cytotoxicity against human 9KB cells assessed as cell survival at 100 ug/ml relative to control; type: functional; details: read-out: Activity
Measurement name: viability at 100 µg/mL (%)
Answers are plain numbers, in %.

Observe how each entry below is paired with its result.
| Smiles entry | viability at 100 µg/mL, % |
| --- | --- |
| O=C(CCc1ccc(O)cc1)c1ccc(O)cc1O | 0 |
| O=C(CCc1ccc(O)cc1)c1c(O)cc(O)cc1O[C@@H]1O[C@H](CO)[C@@H](O)[C@H](O)[C@H]1O | 47 |

Then there is this compound:
Q. Any idea what its viability at 100 µg/mL is? The compound is `O=C(CCc1ccc(O)c(O)c1)c1c(O)cc(O)cc1O`
A. 0
